Assay: Selectivity ratio of IC50 for human fibroblasts to IC50 for human melanoma cells
Assay type: ADME
Conditions: human fibroblasts and human melanoma cells, read-out: Ratio IC50
Tick criterion met if selectivity ratio is 2 or greater. Tick criterion not met if selectivity ratio is less than 2.

The following compounds have reported results that may help.
* CCCCCCCCCCCCCCCCNC(=O)[C@@H]1CSC(c2ccc(NC(=O)CCl)cc2)N1 (mixture of isomers) | criterion not met
* CCCCCCCCC/C=C/CCCCCCCNC(=O)[C@@H]1CSC(c2ccc(OC)c(OC)c2)N1 (mixture of isomers) | criterion met
* CCCCCCCCCCCCCCCCCCNC(=O)[C@@H]1CSC(c2cc(OC)c(OC)c(OC)c2)N1 (mixture of isomers) | criterion not met
* CCCCCCCCC#CCCCCCCCCCNC(=O)[C@@H]1CSC(c2ccc(NC(C)=O)cc2)N1 (mixture of isomers) | criterion met
* CCCCCCCCCCCCCCCCNC(=O)[C@@H]1CSC(c2ccc(N(C)C)cc2)N1 (mixture of isomers) | criterion met
* CC(=O)Nc1ccc(C2N[C@H](C(=O)Nc3ccc4c(c3)Cc3ccccc3-4)CS2)cc1 (mixture of isomers) | criterion met
* CCCCCCCCCCCCCCCCCCNC(=O)[C@@H]1CSC(c2ccccc2)N1 (mixture of isomers) | criterion met
* CCCCCCCCCCCCCCCCNC(=O)[C@@H]1CSC(c2cccc(NC(C)=O)c2)N1 (mixture of isomers) | criterion met
* CC(=O)Nc1ccc(C2N[C@H](C(=O)Nc3ccc4cc5ccccc5cc4c3)CS2)cc1 (mixture of isomers) | criterion met
* CCCCCCCCCCCCCCCCCCNC(=O)[C@@H]1CSC(c2ccc(OC)c(OC)c2)N1 (mixture of isomers) | criterion met

# next compound below
Test whether the compound CCCCCCCCC/C=C\CCCCCCCNC(=O)[C@@H]1CSC(c2ccccc2)N1 (mixture of isomers) records selectivity ratio of 2 or higher.
criterion met
